Test system: HEK293
PROCEDURE_TEXT: Cytotoxic Profiling of Annotated Libraries Using Quantitative High-Throughput Screening (AID 1296008); note: potency is the fitted concentration of half-maximal effect; nearly all actives have a fitted effect of over 60% in size
RUN_PARAMETERS: Five cell lines viability, CellTiter-Glo ATP luminescence, 48-72 h
Records with an inconclusive call do not appear. Activity calls are given as the source filed them. Calls come from the whole dose curve; as a rule, active = well fitted inhibition curve with a large enough effect; inconclusive = small, poorly fitted or top-dose-only effect; inactive = flat fitted curve, though single readings scatter.
MEASUREMENT_TYPE: Potency

> print(dat)
                                   compound  measurement.type              result
1  C/C=C/c1ccc(O[C@@H]2O[C@H](CO)[C@@H](O)[C@H](O)[C@H]2O)c(OC)c1           Potency    11.4 µM (active)
2  Cn1c(=O)n(-c2ccc(C(C)(C)C#N)cc2)c2c3cc(C#Cc4cccnc4)ccc3ncc21           Potency  0.0893 µM (active)
3  COC(C(=O)N1Cc2[nH]nc(NC(=O)c3ccc(N4CCN(C)CC4)cc3)c2C1)c1ccccc1 (centres undefined)           Potency    1.64 µM (active)
4  CO[C@H]1O[C@@H]2O[C@]3(C)CC[C@H]4[C@H](C)CC[C@@H]([C@H]1C)[C@@]24OO3           Potency    10.3 µM (active)
5  Cc1ccc(S(=O)(=O)Cc2nc(-c3ccc(C(=O)NCc4cccnc4)cc3)oc2C)cc1           Potency  0.0065 µM (active)
6  C=C1C(=O)OC2/C=C(\CO)CC/C=C(\C=O)CC(OC(=O)CC(C)C)C12 (centres undefined)           Potency    12.8 µM (active)
7  COc1cc(NC(=O)Nc2cccc(CNC(=O)O[C@H]3CCOC3)c2)ccc1-c1cnco1           Potency    2.31 µM (active)
8  Cc1c(CN2CCN(C(=O)C(C)O)CC2)sc2c(N3CCOCC3)nc(-c3cnc(N)nc3)nc12 (centres undefined)           Potency   0.651 µM (active)

---

System: Nanoluciferase (engineered Oplophorus gracilirostris luciferase)
PROCEDURE_TEXT: Primary Nanoluciferase (NLuc) qHTS assay for identification of artifact compounds. (AID 1845222);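 note: NLuc secreted into diluted conditioned medium of S16 cells; 0% = DMSO and -100% = no enzyme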
RUN_PARAMETERS: NLuc-conditioned medium, Nano-Glo luminescence, 5 min; series mostly up to 54.1 µM
Active and inactive are the calls of the source. Calls follow the shape of the dose curve; as a rule, active = well fitted inhibition curve with a large enough effect; inconclusive = small, poorly fitted or top-dose-only effect; inactive = flat fitted curve, though single readings scatter.

COMPOUND	activity, negative = inhibition
CCC(C)C(=O)OC1CC(C)C=C2C=CC(C)C(CCC(O)CC(O)CC(=O)O)C21 (stereo not given)	inactive
CC(C)=CCC[C@](C)(O[C@@H]1O[C@H](CO)[C@@H](O)[C@H](O)[C@H]1O)[C@H]1CC[C@]2(C)[C@@H]1[C@H](O)CC1[C@@]3(C)CC[C@H](O)C(C)(C)C3[C@@H](O[C@@H]3O[C@H](CO)[C@@H](O)[C@H](O)[C@H]3O)C[C@]12C (stereo not given in full)	inactive
CC(C)(O)C1CCC(C)(C2CCC3(C)C4CCC5C(C)(C(=O)OC6OC(CO)C(O)C(O)C6O)C(O)CC(O)C56CC46CCC23C)O1 (stereo not given)	inactive
C/C=C1\[C@H](O[C@@H]2O[C@H](CO)[C@@H](O)[C@H](O)[C@H]2O)OC=C(C(=O)OC)[C@H]1CC(=O)O	inactive
CC1OC(OC2C(OC3C(O[C@H]4CC[C@@]5(C)C(CC[C@]6(C)C5C(=O)C=C5C7CC(C)(C)CC(O)[C@]7(C)CC[C@]56C)C4(C)C)OC(C(=O)O)C(O)C3O)OCC(O)C2O)C(O)C(O)C1O (stereo not given in full)	-14.3% [at 11.6 µM] (inactive)

---

Test system: Zika virus NS2B-NS3 protease (unlinked complex)
PROCEDURE_TEXT: Primary screen GU Rhodamine qHTS for Zika virus inhibitors: Unlinked NS2B-NS3 protease assay (AID 1347159); note: nearly all actives have a fitted effect of over 60% in size
RUN_PARAMETERS: Recombinant ZIKV NS2B-NS3 protease, Rhodamine110 substrate fluorescence; series mostly up to 107 µM
Inconclusive results are not listed. The source made the active and inactive calls. The call rests on the fitted dose curve; in most records, active means well fitted inhibition curve with a large enough effect; inconclusive means small, poorly fitted or top-dose-only effect; inactive means no such curve, though single readings can be large or run the other way.
Outcomes: active, inactive

COMPOUND	QUALITATIVE_LABEL
CO[C@H]1C[C@@H]2CC[C@@H](C)[C@@](O)(O2)C(=O)C(=O)N2CCCC[C@H]2C(=O)O[C@H]([C@H](C)C[C@@H]2CC[C@H](n3cnnn3)[C@H](OC)C2)CC(=O)[C@H](C)/C=C(\C)[C@@H](O)[C@@H](OC)C(=O)[C@H](C)C[C@H](C)/C=C/C=C/C=C/1C	inactive
CC(C)c1cc2c(c(O)c1O)[C@@]13CCCC(C)(C)[C@@H]1[C@H](OC3=O)C2=O	active
COc1cc(O)cc(/C=C/c2ccc(O[C@@H]3O[C@H](CO)[C@@H](O)[C@H](O)[C@H]3O)cc2)c1	inactive
C[C@@H]1C[C@@H](O)[C@@]23CO[C@@H](O)[C@@H]2CCC[C@@H]3[C@@]12C[C@@H](c1ccoc1)OC2=O	inactive
c1cn2cc(-c3ccc4cn[nH]c4c3)nc(Nc3ccc(N4CCOCC4)cc3)c2n1	inactive
C=CC1(C)C=C2CCC3C(C)(C)C(O[C@@H]4O[C@@H](CO)[C@H](O)[C@H]4O)CCC3(C)C2CC1O[C@@H]1O[C@H](C)[C@H](O)[C@H](O)[C@H]1O (stereo not given in full)	inactive
CC(=O)O[C@@](C)(C(=O)/C=C/C(C)(C)O)[C@H]1[C@H](O)C[C@@]2(C)[C@@H]3CC=C4[C@@H](C=C(O)C(=O)C4(C)C)[C@]3(C)C(=O)C[C@]12C	inactive
C=C(C)C(=O)O[C@H]1CC2=CC(C/C(C)=C\[C@H]3OC(=O)C(=C)[C@H]13)OC2=O (stereo not given in full)	inactive
C=C1C(=O)OC2CC3(C)C(CC12)C(C)=CC(O)C3OC(C)=O (stereo not given)	active
CC(C)C(NC(=O)c1ccc2ccccc2n1)C(=O)NC(CC(=O)O)C(=O)COc1c(F)cccc1F (stereo not given)	inactive
CC1=CC(=O)CC(C)(C)C1/C=C/C(C)O[C@@H]1O[C@H](CO)[C@@H](O)[C@H](O)[C@H]1O[C@@H]1OC[C@](O)(CO)[C@H]1O (stereo not given in full)	inactive
COc1cc2c(cc1O)CC[C@H]1[C@@H]2CC[C@]2(C)[C@H](O)CC[C@@H]12	inactive
CC(C)C[C@H](CC(=O)NO)C(=O)N[C@@H](Cc1ccc2ccccc2c1)C(=O)N[C@@H](C)C(=O)NCCN	inactive
CC(C)c1nnc(-c2ccc(-c3ccccc3)nc2)n1-c1cccc2nonc12	inactive
C=C1CC[C@H]2[C@@](C)(CCC(O)[C@@]2(C)CO)[C@@H]1CCC1=CCOC1=O (stereo not given in full)	inactive

---

PROCEDURE_TEXT: Primary redox qHTS assay for identification of artifact compounds. (AID 1845223);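 note: 0% = DMSO and 100% = reference compound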
RUN_PARAMETERS: Amplex Red/HRP redox cycling with DTT, fluorescence; series mostly up to 53.8 µM
Records with an inconclusive call do not appear. Calls of active or inactive are those of the source. The call rests on the fitted dose curve; in most records, active means well fitted activation curve with a large enough effect; inconclusive means small, poorly fitted or top-dose-only effect; inactive means flat fitted curve, though single readings scatter.

COMPOUND	redox activity (% of DA3003)
CC1CCC2C(C(=O)O)=COC(O[C@@H]3O[C@H](CO)[C@@H](O)[C@H](O)[C@H]3O)C12 (stereo partly specified)	inactive
CN(C)CCn1cc(S(=O)(=O)c2cccc(F)c2)c2cccnc21	inactive
C/C=C1\[C@H](O[C@@H]2O[C@H](CO)[C@@H](O)[C@H](O)[C@H]2O)OC=C(C(=O)OC)[C@H]1CC(=O)OC[C@H]1O[C@@H](OCCc2ccc(O)cc2)[C@H](O)[C@@H](O)[C@@H]1O	inactive
C=C[C@H]1[C@H](O[C@@H]2O[C@H](CO)[C@@H](O)[C@H](O)[C@H]2O)OC=C(C(=O)OC)[C@H]1C/C=C(/C=O)[C@@H]1C(C(=O)OC)=CO[C@@H](O[C@@H]2O[C@H](CO)[C@@H](O)[C@H](O)[C@H]2O)[C@@H]1C=C	inactive
C=CC1C(OC2OC(CO)C(O)C(O)C2O)OC=C2C(=O)N3C(C(=O)O)Cc4c([nH]c5ccccc45)C3CC21 (stereo unspecified)	inactive
CC(C)c1nc(-c2ccc(NC(=O)Nc3cccc(C(F)(F)F)c3)c3ccccc23)c2c(N)nccn12	inactive

---

System: Tov112D
PROCEDURE_TEXT: Primary qHTS to identify gynecologic anti-cancer compounds using libraries of approved drugs and bioactive compounds (AID 1345084); note: nearly all actives have a fitted effect of over 55% in size
RUN_PARAMETERS: Gynecologic cancer cell panel viability, ATPlite luminescence, 48 h; series mostly up to 57.5 µM
Inconclusive results are not listed. Calls of active or inactive are those of the source. The call rests on the fitted dose curve; in most records, active means well fitted cell-killing curve with a large enough effect; inconclusive means small, poorly fitted or top-dose-only effect, or effect the other way; inactive means flat fitted curve, though single readings scatter.
Outcomes: 1.0 (active), 0.0 (inactive)

COMPOUND	QUALITATIVE_LABEL
CC1(C)CCCC2(C)C1CC(=O)C13CC(CCC12)C(O)(CO)C3 (stereo not drawn)	0.0
N#C[C@@H]1CCCN1C(=O)CNC12CC3CC(CC(O)(C3)C1)C2	0.0
CC(CO)C1CCC2(C)CC3C(CO)CC(O)C3C(C)(O)C/C=C/12 (stereo not drawn)	0.0
CCO[C@@H]1OC(=O)C[C@@H]1NC(=O)[C@@H]1CCCN1C(=O)[C@@H](NC(=O)c1ccc(N)c(Cl)c1)C(C)(C)C	0.0
COC(=O)C1=CO[C@@H](O[C@@H]2O[C@H](CO)[C@@H](O)[C@H](O)[C@H]2O)[C@@H]2C(CO)=CC[C@]12O	0.0
CC1OC(OC2CCC3(C)C(CCC4(C)C3CC=C3C5CC(C)(C)CCC5(C(=O)OC5OC(CO)C(O)C(O)C5O)CCC34C(=O)O)C2(C)C)C(O)C(O)C1O (stereo not drawn)	0.0
COc1c2c(c(C)c3c1C(=O)OC3)OC1(C)CC(O)C(C(C)(C)O)C(C)(CCC(=O)O)C1C2 (stereo not drawn)	0.0
NC1CCC(Nc2cc(-c3cccc(NCc4cccc(F)c4)n3)c(Cl)cn2)CC1 (stereo not drawn)	1.0
